# TARGET: CDK9/cyclinT1 (Homo sapiens)
# Sequence (P50750 whole entry): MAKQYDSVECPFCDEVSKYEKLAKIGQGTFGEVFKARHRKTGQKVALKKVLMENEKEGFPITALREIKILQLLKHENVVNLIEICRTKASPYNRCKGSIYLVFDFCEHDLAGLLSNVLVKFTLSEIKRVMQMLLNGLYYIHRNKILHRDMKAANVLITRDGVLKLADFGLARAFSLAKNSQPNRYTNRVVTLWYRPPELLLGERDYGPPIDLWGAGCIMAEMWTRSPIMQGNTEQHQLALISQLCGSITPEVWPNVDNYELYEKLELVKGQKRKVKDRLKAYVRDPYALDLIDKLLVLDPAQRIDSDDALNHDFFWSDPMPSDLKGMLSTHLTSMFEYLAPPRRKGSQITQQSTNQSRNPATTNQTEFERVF
# Sequence (O60563 whole entry partner): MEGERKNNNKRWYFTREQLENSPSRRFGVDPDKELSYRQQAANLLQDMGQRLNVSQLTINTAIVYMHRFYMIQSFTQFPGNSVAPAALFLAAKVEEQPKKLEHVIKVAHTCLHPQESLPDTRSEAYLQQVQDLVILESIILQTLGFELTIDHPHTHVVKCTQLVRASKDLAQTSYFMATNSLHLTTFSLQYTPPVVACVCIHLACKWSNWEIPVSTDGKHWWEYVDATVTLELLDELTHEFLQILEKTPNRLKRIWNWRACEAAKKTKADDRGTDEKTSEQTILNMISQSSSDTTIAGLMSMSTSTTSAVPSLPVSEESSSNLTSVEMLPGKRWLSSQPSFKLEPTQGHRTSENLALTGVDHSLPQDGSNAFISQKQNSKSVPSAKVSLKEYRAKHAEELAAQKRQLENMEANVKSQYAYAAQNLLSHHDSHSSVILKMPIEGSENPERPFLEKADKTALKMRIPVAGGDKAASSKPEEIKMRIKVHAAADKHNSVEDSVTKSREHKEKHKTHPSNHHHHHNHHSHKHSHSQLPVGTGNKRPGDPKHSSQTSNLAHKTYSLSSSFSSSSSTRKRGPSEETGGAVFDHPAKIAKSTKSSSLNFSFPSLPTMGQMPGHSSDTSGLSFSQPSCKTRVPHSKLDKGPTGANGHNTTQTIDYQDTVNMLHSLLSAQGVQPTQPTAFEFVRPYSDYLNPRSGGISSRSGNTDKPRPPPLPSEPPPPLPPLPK
# TEST: CDK9/cyclinT1 kinase assay, IMAP fluorescence polarization
PROPERTY_LABEL: IC50

COMPOUND: Cc1cnc(Nc2cccc(Cl)c2)nc1-c1ccnc(NCCCN)c1 [Compound 31]
PROPERTY_LABEL: IC50
ENDPOINT_RESULT: < 5 µM
--
COMPOUND: CC(=O)NCCCNc1ncccc1-c1nc(Nc2cccc(Cl)c2)ncc1C [Compound 66]
PROPERTY_LABEL: IC50
ENDPOINT_RESULT: < 5 µM
--
COMPOUND: CC(=O)N(C)CCCN(C)c1nccc(-c2ccnc(Nc3cccc(Cl)c3)n2)c1C [Compound 10]
PROPERTY_LABEL: IC50
ENDPOINT_RESULT: < 5 µM
--
COMPOUND: COc1ncccc1-c1ccnc(Nc2cccc(C(=O)O)c2)n1 [Compound 94]
PROPERTY_LABEL: IC50
ENDPOINT_RESULT: 15 to 50 µM
--
COMPOUND: Cc1c(-c2ccnc(Nc3cccc(Cl)c3)n2)ccnc1NCCCN1CCCC1=O [Compound 24]
PROPERTY_LABEL: IC50
ENDPOINT_RESULT: < 5 µM

* * *

Below is a list of entries, each paired with its recorded IC50 value.
# TARGET: CDK1/cyclinB (Homo sapiens)
# Construct: purchased Millipore
# TEST: CDK1/cyclinB kinase assay, IMAP fluorescence polarization
# Type: biochemical
# EXPERIMENTAL_CONTEXT: read-out: CDK1 IC50
PROPERTY_LABEL: IC50

COMPOUND: NCCCNc1ncccc1-c1ccnc(Nc2cccc(S(N)(=O)=O)c2)n1 [Compound 59]
TARGET: CDK1/cyclinB (Homo sapiens)
ENDPOINT_RESULT: < 5 µM

COMPOUND: CS(=O)(=O)c1cccc(Nc2nccc(-c3cccnc3NCCCN)n2)c1 [Compound 58]
TARGET: CDK1/cyclinB (Homo sapiens)
ENDPOINT_RESULT: < 5 µM

COMPOUND: Cc1c(-c2ccnc(N(C)c3cccc(Cl)c3)n2)ccnc1NCCCN [Compound 8]
TARGET: CDK1/cyclinB (Homo sapiens)
ENDPOINT_RESULT: 15 to 50 µM

COMPOUND: CC(=O)NCc1ccc(NCCCNc2nccc(-c3ccnc(Nc4cccc(Cl)c4)n3)c2C)cc1 [Compound 28]
TARGET: CDK1/cyclinB (Homo sapiens)
ENDPOINT_RESULT: 15 to 50 µM

COMPOUND: COCCCNc1nccc(-c2ccnc(Nc3cccc(Cl)c3)n2)c1C [Compound 18]
TARGET: CDK1/cyclinB (Homo sapiens)
ENDPOINT_RESULT: < 5 µM

COMPOUND: COc1ncccc1-c1ccnc(Nc2cccc(S(=O)(=O)NCCO)c2)n1 [Compound 103]
TARGET: CDK1/cyclinB (Homo sapiens)
ENDPOINT_RESULT: < 5 µM

COMPOUND: CC(=O)NCCCNc1nccc(-c2ccnc(Nc3cccc([N+](=O)[O-])c3)n2)c1C [Compound 25]
TARGET: CDK1/cyclinB (Homo sapiens)
ENDPOINT_RESULT: < 5 µM

COMPOUND: CC(=O)NCCCNc1cc(-c2cc(C)nc(Nc3cccc(Cl)c3)n2)ccn1 [Compound 34]
TARGET: CDK1/cyclinB (Homo sapiens)
ENDPOINT_RESULT: < 5 µM

COMPOUND: CN(C)CCNc1ncccc1-c1ccnc(Nc2cccc(Cl)c2)n1 [Compound 53]
TARGET: CDK1/cyclinB (Homo sapiens)
ENDPOINT_RESULT: 15 to 50 µM

* * *

# TARGET: CDK2/cyclinA (Homo sapiens, UniProt P24941)
# Construct: purchased Millipore
# TEST: CDK2/cyclinA kinase assay, IMAP fluorescence polarization
# Type: biochemical
PROPERTY_LABEL: IC50

MOLECULE_SMILES: NCCNc1ncccc1-c1ccnc(Nc2cccc(Cl)c2)n1
TARGET: CDK2/cyclinA (Homo sapiens, UniProt P24941)
PROPERTY_LABEL: IC50
ENDPOINT_RESULT: < 5 µM

MOLECULE_SMILES: COc1ncccc1-c1ccnc(Nc2ccc([N+](=O)[O-])cc2)n1
TARGET: CDK2/cyclinA (Homo sapiens, UniProt P24941)
PROPERTY_LABEL: IC50
ENDPOINT_RESULT: > 50 µM

MOLECULE_SMILES: CC(=O)NCCCNc1ncccc1-c1ccnc(Nc2cccc(Cl)c2)n1
TARGET: CDK2/cyclinA (Homo sapiens, UniProt P24941)
PROPERTY_LABEL: IC50
ENDPOINT_RESULT: < 5 µM

* * *

# TARGET: CDK1/cyclinB (Homo sapiens, UniProt P06493)
# Construct: purchased Millipore
# Sequence (P06493 whole entry): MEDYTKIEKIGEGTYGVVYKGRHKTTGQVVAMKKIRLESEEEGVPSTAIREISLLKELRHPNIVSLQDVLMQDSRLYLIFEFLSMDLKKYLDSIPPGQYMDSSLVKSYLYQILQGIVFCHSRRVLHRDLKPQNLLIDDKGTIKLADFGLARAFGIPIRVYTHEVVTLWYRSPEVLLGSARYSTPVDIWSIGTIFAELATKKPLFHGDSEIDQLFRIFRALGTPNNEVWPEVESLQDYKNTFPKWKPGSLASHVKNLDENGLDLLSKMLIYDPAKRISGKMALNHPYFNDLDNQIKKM
# Sequence (P14635 whole entry partner): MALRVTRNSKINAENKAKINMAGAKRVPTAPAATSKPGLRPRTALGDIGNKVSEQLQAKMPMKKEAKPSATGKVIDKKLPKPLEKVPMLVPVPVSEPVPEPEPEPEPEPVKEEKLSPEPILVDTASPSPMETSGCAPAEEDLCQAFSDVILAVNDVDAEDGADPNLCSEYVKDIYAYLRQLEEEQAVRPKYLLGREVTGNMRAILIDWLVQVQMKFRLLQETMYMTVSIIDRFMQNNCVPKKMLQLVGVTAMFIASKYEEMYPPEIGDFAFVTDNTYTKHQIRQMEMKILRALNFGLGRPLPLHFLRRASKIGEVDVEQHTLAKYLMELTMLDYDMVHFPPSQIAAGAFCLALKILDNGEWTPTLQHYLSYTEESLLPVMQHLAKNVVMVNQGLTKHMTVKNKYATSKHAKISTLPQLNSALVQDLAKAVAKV
# TEST: CDK1/cyclinB kinase assay, IMAP fluorescence polarization
# Format: biochemical
# EXPERIMENTAL_CONTEXT: read-out: CDK1 IC50
PROPERTY_LABEL: IC50

MOLECULE_SMILES: COc1ncccc1-c1ccnc(Nc2cccc(C(N)=O)c2)n1
PROPERTY_LABEL: IC50
ENDPOINT_RESULT: < 5 µM

MOLECULE_SMILES: Cc1c(-c2ccnc(Nc3cccc(Cl)c3)n2)ccnc1Cl
PROPERTY_LABEL: IC50
ENDPOINT_RESULT: > 50 µM

MOLECULE_SMILES: CCOC(=O)c1cccc(Nc2nccc(-c3cccnc3OC)n2)c1
PROPERTY_LABEL: IC50
ENDPOINT_RESULT: < 5 µM

MOLECULE_SMILES: CCCCNc1ncccc1-c1nc(Nc2cccc(Cl)c2)ncc1C
PROPERTY_LABEL: IC50
ENDPOINT_RESULT: > 50 µM

MOLECULE_SMILES: CC(=O)NCCCNc1ncccc1-c1ccnc(Nc2cccc(C#N)c2)n1
PROPERTY_LABEL: IC50
ENDPOINT_RESULT: < 5 µM

MOLECULE_SMILES: Cc1cnc(Nc2cccc(Cl)c2)nc1-c1ccnc(NCCCN)c1
PROPERTY_LABEL: IC50
ENDPOINT_RESULT: < 5 µM

MOLECULE_SMILES: CCNS(=O)(=O)c1cccc(Nc2nccc(-c3cccnc3OC)n2)c1
PROPERTY_LABEL: IC50
ENDPOINT_RESULT: > 50 µM

MOLECULE_SMILES: CC(=O)NCCCOc1ncccc1-c1ccnc(Nc2cccc(Cl)c2)n1
PROPERTY_LABEL: IC50
ENDPOINT_RESULT: 5 to 15 µM

MOLECULE_SMILES: CC(=O)OCCCNc1nccc(-c2ccnc(Nc3cccc(Cl)c3)n2)c1C
PROPERTY_LABEL: IC50
ENDPOINT_RESULT: 5 to 15 µM

MOLECULE_SMILES: Clc1cccc(Nc2nccc(-c3cccnc3NCCc3c[nH]cn3)n2)c1
PROPERTY_LABEL: IC50
ENDPOINT_RESULT: < 5 µM

MOLECULE_SMILES: COc1ncccc1-c1ccnc(Nc2cccc(-c3ccccc3)c2)n1
PROPERTY_LABEL: IC50
ENDPOINT_RESULT: > 50 µM

MOLECULE_SMILES: COc1ncccc1-c1ccnc(N)n1
PROPERTY_LABEL: IC50
ENDPOINT_RESULT: > 50 µM

MOLECULE_SMILES: Nc1cnccc1-c1ccnc(Nc2cccc(Cl)c2)n1
PROPERTY_LABEL: IC50
ENDPOINT_RESULT: < 5 µM

MOLECULE_SMILES: Cc1cnc(Nc2cccc(Cl)c2)nc1-c1cccnc1NCCCN
PROPERTY_LABEL: IC50
ENDPOINT_RESULT: < 5 µM

MOLECULE_SMILES: CNc1nccc(-c2cccnc2OC)n1
PROPERTY_LABEL: IC50
ENDPOINT_RESULT: 15 to 50 µM

MOLECULE_SMILES: NCCCOc1ncccc1-c1ccnc(Nc2cccc(Cl)c2)n1
PROPERTY_LABEL: IC50
ENDPOINT_RESULT: < 5 µM

MOLECULE_SMILES: CC(=O)NCCCNc1cc(-c2ccnc(Nc3cccc(Cl)c3)n2)cc(C)n1
PROPERTY_LABEL: IC50
ENDPOINT_RESULT: < 5 µM

MOLECULE_SMILES: CNCCNc1nccc(-c2ccnc(Nc3cccc(Cl)c3)n2)c1C
PROPERTY_LABEL: IC50
ENDPOINT_RESULT: < 5 µM

* * *

# TARGET: CDK9/cyclinT1 (Homo sapiens)
# TEST: CDK9/cyclinT1 kinase assay, IMAP fluorescence polarization
pIC50: −log10 of the molar value.

COMPOUND: COc1ncccc1-c1ccnc(Nc2cccnc2)n1 [Compound 90]
pIC50: < 4.30

COMPOUND: Cc1cnccc1-c1ccnc(Nc2cccc(Cl)c2)n1 [Compound 44]
pIC50: > 5.30

COMPOUND: COc1ncccc1-c1ccnc(Nc2cccc([N+](=O)[O-])c2)n1 [Compound 92]
pIC50: > 5.30

COMPOUND: CNCCCNc1ncccc1-c1ccnc(Nc2cccc(Cl)c2)n1 [Compound 62]
pIC50: > 5.30

COMPOUND: COc1ccc(-c2ccnc(Nc3cccc(Cl)c3)n2)c(OC)n1 [Compound 118]
pIC50: 4.82 to 5.30
